# protocol_notes: Plasma drug concentration after Oral administration to SD Rat 7 at 1 hr
# Assay type: ADME, organism-based
# details: Sprague-Dawley
endpoint: concentration at 1 h (ng/mL)
One number for each entry, in ng/mL.

-- ask What measured concentration at 1 h goes with COc1cc2ncnc(N3CCN(C(=S)Nc4ccc(Br)cc4)CC3)c2cc1OC ?
-- reply 6600

====

# protocol_notes: Plasma drug concentration after Oral administration to SD Rat 10 at 1 hr
# Format: ADME, organism-based
# details: Sprague-Dawley
endpoint: concentration at 1 h

-- ask What measured concentration at 1 h goes with CCc1ccc(NC(=O)N2CCN(c3ncnc4cc(OC)c(OC)cc34)CC2)cc1 ?
-- reply 5700 ng/mL
